# TARGET_DESC: D(2) dopamine receptor (Homo sapiens)
# ASSAY_REMARKS: Displacement of [3H]Raclopride from recombinant human D2L receptor expressed in Flp-In CHO cell membranes assessed as co-operativity factor after 2 to 3 hrs by microbeta counting method
ASSAY_ENDPOINT: Activity

Known Activity results, listed for orientation:
SMILES_DATA	Activity
CCN(CC)c1ncnc2sccc12	0.1
FC(F)(F)c1cccc(Nc2ncnc3sc4c(c23)CCCC4)c1	0.39
FC(F)(F)c1cccc(Nc2nc(CC3CCOCC3)nc3sc4c(c23)CCCC4)c1	0.39
CCN(CC)c1nc(CN2CCOCC2)nc2sc3c(c12)CCCC3	0.23

A. FC(F)(F)c1cccc(Nc2nc(CCCCN3CCOCC3)nc3sc4c(c23)CCCC4)c1
B. FC(F)(F)c1cccc(Nc2nc(CN3CCOCC3)nc3scc(-c4ccccc4)c23)c1
Inquiry: Pick one, A or B : lowest reported Activity. Refer to your chosen entry by its label in the reply.
Reply text: A
(A: 0.09, B: 0.13)

###

# TARGET_DESC: D(2) dopamine receptor (Homo sapiens) (UniProt P14416)
# Sequence (P14416 whole entry): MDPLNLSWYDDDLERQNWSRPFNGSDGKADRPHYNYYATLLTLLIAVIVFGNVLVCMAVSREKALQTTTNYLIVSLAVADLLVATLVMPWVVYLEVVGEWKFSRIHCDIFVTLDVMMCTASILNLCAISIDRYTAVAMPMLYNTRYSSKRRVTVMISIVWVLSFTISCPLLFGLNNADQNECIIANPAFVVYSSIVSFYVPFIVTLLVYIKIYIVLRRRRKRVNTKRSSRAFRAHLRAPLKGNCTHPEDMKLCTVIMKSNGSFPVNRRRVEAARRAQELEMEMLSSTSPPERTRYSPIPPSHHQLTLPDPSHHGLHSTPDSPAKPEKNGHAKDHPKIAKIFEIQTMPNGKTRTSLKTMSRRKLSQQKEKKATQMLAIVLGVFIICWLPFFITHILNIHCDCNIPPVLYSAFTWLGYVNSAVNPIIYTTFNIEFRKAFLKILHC
# ASSAY_REMARKS: Negative allosteric modulation of recombinant human D2L receptor expressed in Flp-In CHO cells assessed as inhibition of dopamine-induced reduction in forskolin stimulated cAMP accumulation by measuring co-operativity factor preincubated for 30 mins followed by forskolin stimulation and measured after 30 mins by BRET assay
# Type: functional, cell-based
ASSAY_ENDPOINT: Activity

SMILES_DATA	Activity
FC(F)(F)c1cccc(Nc2nc(CN3CCOCC3)nc3sc(C4CCCCC4)cc23)c1	0.13
FC(F)(F)c1cccc(Nc2nc(CCCN3CCOCC3)nc3sc4c(c23)CCCC4)c1	0.21
CCN(CC)c1nc(CCCCN2CCOCC2)nc2sccc12	0.05
FC(F)(F)c1cccc(Nc2nc(CN3CCCCC3)nc3sc4c(c23)CCCC4)c1	0.34
COc1cccc(Nc2nc(CN3CCOCC3)nc3sc4c(c23)CCCC4)c1	0.19
FC(F)(F)c1cccc(Nc2nc(CCCCN3CCOCC3)nc3sc4c(c23)CCCC4)c1	0.19

A. FC(F)(F)c1cccc(Nc2nc(CC3CCOCC3)nc3sc4c(c23)CCCC4)c1
B. CN(C)c1nc(CN2CCOCC2)nc2sc(Cc3ccccc3)cc12
C. Oc1cccc(Nc2nc(CN3CCOCC3)nc3sc4c(c23)CCCC4)c1
Inquiry: Task for the reader: rank each entry by its Activity, from the minimum upward. Sort the labels as requested; that list is your answer.
Reply text: C, A, B

###

# TARGET_DESC: D(3) dopamine receptor (Homo sapiens)
# ASSAY_REMARKS: Displacement of [3H]Raclopride from recombinant D3 receptor (unknown origin) expressed in Flp-In CHO cell membranes assessed as co-operativity factor after 2 to 3 hrs by microbeta counting method
ASSAY_ENDPOINT: log(activity)

SMILES_DATA	MEAS_VALUE
FC(F)(F)c1cccc(Nc2nc(CN3CCOCC3)nc3sc4c(c23)CCCC4)c1	-0.4
FC(F)(F)c1cccc(Nc2nc(CC3CCOCC3)nc3sc4c(c23)CCCC4)c1	-0.44

a. FC(F)(F)c1cccc(Nc2nc(CCCCN3CCOCC3)nc3sc4c(c23)CCCC4)c1
b. FC(F)(F)c1cccc(Nc2ncnc3sc4c(c23)CCCC4)c1
Inquiry: Which record would sort first by descending log(activity), a or b ? Refer to your chosen entry by its label in the reply.
Reply text: b
(b: -0.39, a: -0.69)

###

# TARGET_DESC: D(3) dopamine receptor (Homo sapiens)
# ASSAY_REMARKS: Displacement of [3H]Raclopride from recombinant D3 receptor (unknown origin) expressed in Flp-In CHO cell membranes assessed as co-operativity factor after 2 to 3 hrs by microbeta counting method
ASSAY_ENDPOINT: Activity

SMILES_DATA	Activity
FC(F)(F)c1cccc(Nc2nc(CC3CCOCC3)nc3sc4c(c23)CCCC4)c1	0.37
FC(F)(F)c1cccc(Nc2ncnc3sc4c(c23)CCCC4)c1	0.06

a. FC(F)(F)c1cccc(Nc2nc(CCCCN3CCOCC3)nc3sc4c(c23)CCCC4)c1
b. FC(F)(F)c1cccc(Nc2nc(CN3CCOCC3)nc3sc4c(c23)CCCC4)c1
Inquiry: Which record would sort first by descending Activity, a or b ? Refer to your chosen entry by its label in the reply.
Reply text: b

###

# TARGET_DESC: D(2) dopamine receptor (Homo sapiens) (UniProt P14416)
# ASSAY_REMARKS: Negative allosteric modulation of recombinant human D2L receptor expressed in Flp-In CHO cells assessed as inhibition of dopamine-induced reduction in forskolin stimulated cAMP accumulation preincubated for 30 mins followed by forskolin stimulation and measured after 30 mins by BRET assay
# Assay type: functional, cell-based
ASSAY_ENDPOINT: pKb

SMILES_DATA	ASSAY_ENDPOINT	MEAS_VALUE
CCN(CC)c1nc(CCCCN2CCOCC2)nc2sccc12	pKb	5.89
COc1cccc(Nc2nc(CN3CCOCC3)nc3sc4c(c23)CCCC4)c1	pKb	5.1
CCN(CC)c1ncnc2sc3c(c12)CCCC3	pKb	5.72
FC(F)(F)c1cccc(Nc2nc(CCCCN3CCOCC3)nc3sccc23)c1	pKb	5.85
CCN(CC)c1nc(CCCCN2CCOCC2)nc2sc3c(c12)CCCC3	pKb	5.8
FC(F)(F)c1cccc(Nc2nc(CCCN3CCOCC3)nc3sc4c(c23)CCCC4)c1	pKb	5.79

###

# TARGET_DESC: D(2) dopamine receptor (Homo sapiens) (UniProt P14416)
# ASSAY_REMARKS: Negative allosteric modulation of recombinant human D2L receptor expressed in Flp-In CHO cells assessed as inhibition of dopamine-induced reduction in forskolin stimulated cAMP accumulation preincubated for 30 mins followed by forskolin stimulation and measured after 30 mins by BRET assay
# Type: functional, cell-based
ASSAY_ENDPOINT: pKb

SMILES_DATA	ASSAY_ENDPOINT	MEAS_VALUE
c1ccc(Nc2nc(CN3CCOCC3)nc3sc4c(c23)CCCC4)cc1	pKb	5.13
FC(F)(F)c1cccc(Nc2nc(CN3CCOCC3)nc3sc4c(c23)CCCC4)c1	pKb	5.41
FC(F)(F)c1cccc(Nc2nc(CN3CCOCC3)nc3sc4c(c23)CCC4)c1	pKb	4.95
FC(F)(F)c1cccc(Nc2nc(CC3CCOCC3)nc3sc4c(c23)CCCC4)c1	pKb	6.22
FC(F)(F)c1cccc(Nc2nc(CCCCN3CCOCC3)nc3sc4c(c23)CCCC4)c1	pKb	6.21
FC(F)(F)c1cccc(Nc2ncnc3sc4c(c23)CCCC4)c1	pKb	4.6
CCN(CC)c1nc(CN2CCOCC2)nc2sc3c(c12)CCCC3	pKb	6.18
CCN(CC)c1nc(CN2CCOCC2)nc2sccc12	pKb	5.5
FC(F)(F)c1cccc(Nc2nc(CCN3CCOCC3)nc3sc4c(c23)CCCC4)c1	pKb	6.01
FC(F)(F)c1cccc(Nc2nc(CN3CCOCC3)nc3sc(C4CCCCC4)cc23)c1	pKb	5.27

###

# TARGET_DESC: D(2) dopamine receptor (Homo sapiens)
# ASSAY_REMARKS: Displacement of [3H]Raclopride from recombinant human D2L receptor expressed in Flp-In CHO cell membranes after 2 to 3 hrs by microbeta counting method
ASSAY_ENDPOINT: pKb

SMILES_DATA	ASSAY_ENDPOINT	MEAS_VALUE
FC(F)(F)c1cccc(Oc2nc(CN3CCOCC3)nc3sc4c(c23)CCCC4)c1	pKb	4.66
FC(F)(F)c1cccc(Nc2nc(CN3CCOCC3)nc3sc4c(c23)CCCCCC4)c1	pKb	3.98
CCN(CC)c1nc(CC2CCOCC2)nc2sc3c(c12)CCCC3	pKb	4.45
CCN(CC)c1ncnc2sccc12	pKb	4.65
FC(F)(F)c1cccc(Nc2nc(CN3CCOCC3)nc3scc(C4CCCCC4)c23)c1	pKb	4.42
FC(F)(F)c1cccc(Nc2ncnc3sc4c(c23)CCCC4)c1	pKb	4.51
FC(F)(F)c1cccc(Nc2nc(CN3CCOCC3)nc3sc(C4CCCCC4)cc23)c1	pKb	4.34
CCN(CC)c1nc(CCCCN2CCOCC2)nc2sccc12	pKb	5.51
CCN(CC)c1nc(CCCCN2CCOCC2)nc2sc3c(c12)CCCC3	pKb	4.79
FC(F)(F)c1cccc(Nc2nc(CCN3CCOCC3)nc3sc4c(c23)CCCC4)c1	pKb	4.16
FC(F)(F)c1cccc(Nc2nc(CCCCN3CCOCC3)nc3sccc23)c1	pKb	4.71
FC(F)(F)c1cccc(Nc2nc(CN3CCOCC3)nc3sc4c(c23)CCC4)c1	pKb	4.23
FC(F)(F)c1cccc(Nc2nc(CN3CCOCC3)nc3sc4c(c23)CCCC4)c1	pKb	4.78
Oc1cccc(Nc2nc(CN3CCOCC3)nc3sc4c(c23)CCCC4)c1	pKb	4.45
FC(F)(F)c1cccc(Nc2nc(CCCN3CCOCC3)nc3sc4c(c23)CCCC4)c1	pKb	4.89
FC(F)(F)c1cccc(Nc2nc(CN3CCOCC3)nc3sc4c(c23)CCCCC4)c1	pKb	4.43
FC(F)(F)c1cccc(Nc2nc(CN3CCCCC3)nc3sc4c(c23)CCCC4)c1	pKb	4.41
FC(F)(F)c1cccc(Nc2nc(CN3CCOCC3)nc3sccc23)c1	pKb	3.91
FC(F)(F)c1cccc(Nc2ncnc3sccc23)c1	pKb	4.2
FC(F)(F)c1cccc(Nc2nc(CN3CCOCC3)nc3sc(-c4ccccc4)cc23)c1	pKb	4.35
FC(F)(F)c1cccc(Nc2nc(CN3CCOCC3)nc3scc(-c4ccccc4)c23)c1	pKb	4.31
c1ccc(Nc2nc(CN3CCOCC3)nc3sc4c(c23)CCCC4)cc1	pKb	4
FC(F)(F)c1cccc(Nc2nc(CN3CCOCC3)nc3sc(Cc4ccccc4)cc23)c1	pKb	4.3
FC(F)(F)c1cccc(Nc2nc(CC3CCOCC3)nc3sc4c(c23)CCCC4)c1	pKb	3.99
COc1cccc(Nc2nc(CN3CCOCC3)nc3sc4c(c23)CCCC4)c1	pKb	4.32
CCN(CC)c1nc(CN2CCOCC2)nc2sccc12	pKb	5.89
CNc1nc(CN2CCOCC2)nc2sc3c(c12)CCCC3	pKb	4.28
FC(F)(F)c1cccc(Nc2nc(CCCCN3CCOCC3)nc3sc4c(c23)CCCC4)c1	pKb	5.48
CCN(CC)c1nc(CN2CCOCC2)nc2sc3c(c12)CCCC3	pKb	5.22
CN(C)c1nc(CN2CCOCC2)nc2sc(Cc3ccccc3)cc12	pKb	4.51
Cc1sc2nc(CN3CCOCC3)nc(Nc3cccc(C(F)(F)F)c3)c2c1C	pKb	3.59
CCN(CC)c1ncnc2sc3c(c12)CCCC3	pKb	4.76
